Entries and their RLU
target: T1, human CD137-Fc (human, biotin-labeled); experiment: bead ELISA, IgG on biotinylated antigen, luminescence;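 note: biotinylated antigen captured on streptavidin magnetic beads, then incubated with purified IgG at 50 ng/µL for 1 h at room temperature before detection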
T1 construct: if 90 already holds the Fc, drop the second piece; also called biotin-labeled human CD137 fused to human IgG1 Fc fragment; biotin-human CD137-Fc; not shown: human IgG1 Fc fragment
T1 sequence (chain, as listed by the source): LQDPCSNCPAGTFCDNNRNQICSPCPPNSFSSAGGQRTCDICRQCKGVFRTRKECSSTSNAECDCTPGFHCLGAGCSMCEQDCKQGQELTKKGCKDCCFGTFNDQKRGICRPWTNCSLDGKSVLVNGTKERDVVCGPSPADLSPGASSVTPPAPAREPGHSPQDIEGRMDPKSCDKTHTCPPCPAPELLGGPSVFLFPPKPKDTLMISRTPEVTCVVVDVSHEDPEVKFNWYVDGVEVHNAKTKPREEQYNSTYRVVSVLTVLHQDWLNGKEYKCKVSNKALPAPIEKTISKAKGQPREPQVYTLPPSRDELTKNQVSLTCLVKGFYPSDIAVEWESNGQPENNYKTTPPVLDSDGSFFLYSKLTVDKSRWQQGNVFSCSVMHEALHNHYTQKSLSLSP

binder	units	RLU
DXDU01_3#094 (antibody, V domains shown, Human IgG1; light chain GLS3000 (kappa); also called dBBDu121) VH: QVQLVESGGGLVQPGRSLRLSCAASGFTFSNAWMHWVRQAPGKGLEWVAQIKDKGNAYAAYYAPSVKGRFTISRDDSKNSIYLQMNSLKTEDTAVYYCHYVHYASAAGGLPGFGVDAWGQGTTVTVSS VL: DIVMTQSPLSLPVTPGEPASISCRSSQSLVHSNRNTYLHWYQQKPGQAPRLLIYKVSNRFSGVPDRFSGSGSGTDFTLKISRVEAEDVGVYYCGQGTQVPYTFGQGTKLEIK	RLU	24200
DXDU01_3#019 (antibody, V domains shown, Human IgG1; light chain GLS3000 (kappa); also called dBBDu125) VH: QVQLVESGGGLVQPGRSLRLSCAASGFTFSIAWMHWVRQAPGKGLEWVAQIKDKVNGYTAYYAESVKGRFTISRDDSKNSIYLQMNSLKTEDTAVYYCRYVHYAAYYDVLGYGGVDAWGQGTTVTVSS VL: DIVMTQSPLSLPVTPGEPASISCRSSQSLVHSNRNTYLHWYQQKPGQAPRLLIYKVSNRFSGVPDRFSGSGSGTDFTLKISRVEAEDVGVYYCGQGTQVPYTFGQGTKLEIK	RLU	77800
DADU01_3#018 (antibody, V domains shown, Human IgG1; light chain GLS3000 (kappa); also called dBBDu123) VH: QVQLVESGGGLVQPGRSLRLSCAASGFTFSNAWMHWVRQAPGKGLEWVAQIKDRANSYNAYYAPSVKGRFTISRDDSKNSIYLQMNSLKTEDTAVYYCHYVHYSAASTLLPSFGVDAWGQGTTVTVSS VL: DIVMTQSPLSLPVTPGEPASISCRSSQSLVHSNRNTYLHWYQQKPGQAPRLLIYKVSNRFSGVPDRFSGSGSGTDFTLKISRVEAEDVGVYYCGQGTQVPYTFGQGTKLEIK	RLU	32800
DADU01_3#001 (antibody, V domains shown, Human IgG1; light chain GLS3000 (kappa); also called dBBDu126; dBBDu_126) VH: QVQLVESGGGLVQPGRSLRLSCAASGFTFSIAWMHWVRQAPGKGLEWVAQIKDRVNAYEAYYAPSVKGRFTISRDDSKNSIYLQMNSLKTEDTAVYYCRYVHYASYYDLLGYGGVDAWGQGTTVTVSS VL: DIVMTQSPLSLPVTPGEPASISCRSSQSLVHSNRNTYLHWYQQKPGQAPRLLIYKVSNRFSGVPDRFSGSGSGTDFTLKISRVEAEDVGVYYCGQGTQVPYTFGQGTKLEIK	RLU	95300
